pIC50 (REN) listing for selected compounds.
tested.on: UniProt:P51449
experimental.protocol: RORγ Gal4 Reporter Gene Assay in 293T cells (firefly and renilla luciferase)
Assay type: cell-based, human

Example results:
COC(C)(C)CNC(=O)c1cc(-c2cc(C(C)(C)C)cc(C(C)(C)C)c2)n(CC2CCCCC2)c1C	6.9/6.9/6.9
COCC(C)(C)NS(=O)(=O)c1ccc(-c2cc(C(=O)NC3CCOCC3)c(C)n2CC2CCCCC2)cc1C(F)(F)F	6.2/7.2/7.3
Cc1c(C(=O)NCCN2CCOCC2)cc(-c2cc(C(C)(C)C)c3c(c2)C2(CCO3)CC2)n1CC1CCCCC1	6.3/6.9/7.0
Cc1c(C(=O)NCC(C)(C)O)cc(-c2cc(C(C)(C)C)cc(C(C)(C)C)c2OC(F)F)n1CC1CCCCC1	5.9/7.0/6.9
Cc1c(C(=O)NCC(C)(C)C(=O)NCCO)cc(-c2cc(C(C)(C)C)c3c(c2)C2(CCO3)CC2)n1CC1CCCCC1	6.5/7.3/7.4
Cc1c(C(=O)NC2COC2)cc(-c2cc(C(C)(C)C)cc(C(C)(C)C)c2)n1CC1CCCC(C)C1 (stereo not shown)	6.7/7.4/7.3

Note: attention shifts to another entry.
Query block: Query: pIC50 (REN); subject: Cc1c(C(=O)NCC(C)(C)O)cc(-c2cc(C(C)(C)C)c3c(c2)C2(CCO3)CC2)n1CC1CCCCC1
Result block: 6.5/6.9/7.0

###

tested.on: RORγ (UniProt P51449)
Sequence (P51449 1-518): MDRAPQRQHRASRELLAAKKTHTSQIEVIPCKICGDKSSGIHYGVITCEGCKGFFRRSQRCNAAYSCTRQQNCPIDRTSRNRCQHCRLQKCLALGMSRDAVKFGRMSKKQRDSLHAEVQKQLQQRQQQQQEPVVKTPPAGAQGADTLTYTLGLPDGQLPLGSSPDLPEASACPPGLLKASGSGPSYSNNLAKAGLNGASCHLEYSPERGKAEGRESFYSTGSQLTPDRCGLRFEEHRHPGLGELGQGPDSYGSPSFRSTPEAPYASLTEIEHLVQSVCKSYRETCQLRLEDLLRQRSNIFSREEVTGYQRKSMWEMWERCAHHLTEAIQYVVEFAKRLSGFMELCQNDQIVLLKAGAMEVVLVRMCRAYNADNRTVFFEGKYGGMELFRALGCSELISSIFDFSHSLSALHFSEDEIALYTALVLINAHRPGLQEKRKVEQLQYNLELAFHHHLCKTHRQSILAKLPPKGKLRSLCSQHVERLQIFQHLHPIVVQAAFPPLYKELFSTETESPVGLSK
experimental.protocol: RORγ Gal4 Reporter Gene Assay in 293T cells (firefly and renilla luciferase)
Format: cell-based, human
condition.set: second value of the cell; Gal4 reporter gene assay in 293T cells, firefly luciferase
pIC50 (FF) listing for selected compounds.

Example results:
Cc1c(C(=O)NCCC(C)(C)C(=O)O)cc(-c2ccc(S(=O)(=O)N[C@@H](C)C(F)(F)F)c(C(F)(F)F)c2)n1CC1CCCCC1 [17/150]	8.0
Cc1c(C(=O)NC2COC2)cc(-c2cc(C(C)(C)C)c3c(c2)C(C)(C)CC(=O)N3C)n1CC1CCCCC1 [1/19]	7.0
Cc1c(C(=O)NC2CCOCC2)cc(-c2ccc(S(=O)(=O)NC(C)(C)C)c(C(F)(F)F)c2)n1S(=O)(=O)C1CCCCC1 [17/218]	7.1
Cc1c(C(=O)NC2CCOCC2)cc(-c2cc(C(C)(C)O)cc(C(F)(F)F)c2)n1CC1CCCCC1 [17/306]	6.8

Note: attention shifts to another entry.
Query block: Query: pIC50 (FF); subject: CCC(C)(C)NS(=O)(=O)c1ccc(-c2cc(C(=O)NC3CCOCC3)c(C)n2CC2CCCC2)cc1C(F)(F)F [17/216]
Result block: 7.8
